These measurements were taken from PubChem BioAssay AID1996.

- CONDITIONS USED: buffer; pH 7.4; 200.0 µM
METRIC NAME: solubility kinetic

Example entries begin here.
Reported solubility kinetic for N#C/C(=C\c1cccnc1)C(=O)Nc1ccccc1[N+](=O)[O-] : what is it?
30.2 µg/mL

Reported solubility kinetic for COC(=O)Cn1cc([N+](=O)[O-])nc1C : what is it?
> 29.9 µg/mL

Here's the next entry for you.
Reported solubility kinetic for O=c1[nH]cnc2ccc([N+](=O)[O-])cc12 : what is it?
> 28.7 µg/mL

====

Listed below: solubility kinetic values for each entry.
- CONDITIONS USED: buffer; pH 7.4; 200.0 µM
The figure you give is taken to be in µg/mL; do not add the unit.

Reported solubility kinetic for CCCN1CCC(NC(=O)Cc2ccc(C)cc2)CC1 : what is it?
39.7

Here's the next entry for you.
Reported solubility kinetic for CCOC(=O)C1CCCN(Cc2cc(=O)oc3cc(C)ccc23)C1 (stereo not drawn) : what is it?
40.5

====

- CONDITIONS USED: buffer; pH 7.4; 200.0 µM
Listed below: solubility kinetic values for each entry.

Reported solubility kinetic for COc1cc(C)c(NC(=S)NCCCN2CCOCC2)cc1OC : what is it?
> 53 µg/mL

Here's the next entry for you.
Reported solubility kinetic for Cc1cc(C)nc(Nc2nc3ccccc3s2)n1 : what is it?
< 0.1 µg/mL

====

- CONDITIONS USED: buffer; pH 7.4; 200.0 µM
Listed below: solubility kinetic values for each entry.

Reported solubility kinetic for CC1(C)CC(=O)C2=C(C1)Nc1ccccc1NC2c1cccc(F)c1 (centres undefined) : what is it?
> 50.5 µg/mL

Reported solubility kinetic for Cc1cc(C)c2[nH]c(C)c(CN3CCCCCC3)c(=O)c2c1 : what is it?
> 44.8 µg/mL

Others:
Reported solubility kinetic for CN(CC(=O)Nc1ccc(Cl)c(Cl)c1)C(=O)C1CCC1 : what is it?
> 47.3 µg/mL

Reported solubility kinetic for CCOC(=O)/C(C#N)=C/C1=C(N2CCOCC2)C(C)(C)OCC1 : what is it?
> 48.1 µg/mL

====

- CONDITIONS USED: buffer; pH 7.4; 200.0 µM
METRIC NAME: solubility kinetic

Reported solubility kinetic for CCc1c(-c2ccccc2)[n+](=O)c2c(n1[O-])CCC2 : what is it?
> 38.4 µg/mL

Reported solubility kinetic for O=C(O)CNC1c2ccccc2CSc2ccccc21 (centres undefined) : what is it?
> 42.8 µg/mL

Reported solubility kinetic for O=C(CNC(=O)c1ccccc1F)NC1=NCCS1 : what is it?
> 42.2 µg/mL

Reported solubility kinetic for Cc1csc(Nc2ccc(C(=O)O)cc2)n1 : what is it?
> 35.1 µg/mL

Reported solubility kinetic for Nc1nc(F)cc(N2CCCCCC2)n1 : what is it?
> 31.5 µg/mL

Reported solubility kinetic for Cc1ccccc1C(=O)NCCN1CCOCC1.Cl : what is it?
> 42.7 µg/mL

Reported solubility kinetic for CCOc1ccc(S(=O)(=O)N(C)CC(=O)NC2CC2)cc1 : what is it?
> 46.9 µg/mL

Reported solubility kinetic for O=C(Nc1ccc(F)cc1)Nc1ccc2c(c1)CCC2 : what is it?
< 0.3 µg/mL

Reported solubility kinetic for CC1=C([N+](=O)[O-])C(c2ccc(O)c(O)c2)NC(=O)N1 (centres undefined) : what is it?
> 39.8 µg/mL

Reported solubility kinetic for O=[N+]([O-])c1cccc(-c2cc3ccccc3[nH]2)c1 : what is it?
< 0.3 µg/mL

Others:
Reported solubility kinetic for CC(C)(C)NC(=O)NC(=O)COC(=O)c1cc[n+]([O-])cc1 : what is it?
> 44.3 µg/mL

Reported solubility kinetic for O=C(Nc1nc2c(F)c(F)c(F)cc2s1)c1ccco1 : what is it?
< 0.3 µg/mL

Reported solubility kinetic for CC1=C(C(=O)OC2CCCCC2)C(c2ccc(O)cc2)NC(=O)N1 (centres undefined) : what is it?
> 49.6 µg/mL

Reported solubility kinetic for Nc1ncc([N+](=O)[O-])c(N2CCCCCC2)n1 : what is it?
> 35.6 µg/mL
